Target: PI3K-delta (Homo sapiens)
Construct: Millipore 14-604
Sequence (O00329 whole entry): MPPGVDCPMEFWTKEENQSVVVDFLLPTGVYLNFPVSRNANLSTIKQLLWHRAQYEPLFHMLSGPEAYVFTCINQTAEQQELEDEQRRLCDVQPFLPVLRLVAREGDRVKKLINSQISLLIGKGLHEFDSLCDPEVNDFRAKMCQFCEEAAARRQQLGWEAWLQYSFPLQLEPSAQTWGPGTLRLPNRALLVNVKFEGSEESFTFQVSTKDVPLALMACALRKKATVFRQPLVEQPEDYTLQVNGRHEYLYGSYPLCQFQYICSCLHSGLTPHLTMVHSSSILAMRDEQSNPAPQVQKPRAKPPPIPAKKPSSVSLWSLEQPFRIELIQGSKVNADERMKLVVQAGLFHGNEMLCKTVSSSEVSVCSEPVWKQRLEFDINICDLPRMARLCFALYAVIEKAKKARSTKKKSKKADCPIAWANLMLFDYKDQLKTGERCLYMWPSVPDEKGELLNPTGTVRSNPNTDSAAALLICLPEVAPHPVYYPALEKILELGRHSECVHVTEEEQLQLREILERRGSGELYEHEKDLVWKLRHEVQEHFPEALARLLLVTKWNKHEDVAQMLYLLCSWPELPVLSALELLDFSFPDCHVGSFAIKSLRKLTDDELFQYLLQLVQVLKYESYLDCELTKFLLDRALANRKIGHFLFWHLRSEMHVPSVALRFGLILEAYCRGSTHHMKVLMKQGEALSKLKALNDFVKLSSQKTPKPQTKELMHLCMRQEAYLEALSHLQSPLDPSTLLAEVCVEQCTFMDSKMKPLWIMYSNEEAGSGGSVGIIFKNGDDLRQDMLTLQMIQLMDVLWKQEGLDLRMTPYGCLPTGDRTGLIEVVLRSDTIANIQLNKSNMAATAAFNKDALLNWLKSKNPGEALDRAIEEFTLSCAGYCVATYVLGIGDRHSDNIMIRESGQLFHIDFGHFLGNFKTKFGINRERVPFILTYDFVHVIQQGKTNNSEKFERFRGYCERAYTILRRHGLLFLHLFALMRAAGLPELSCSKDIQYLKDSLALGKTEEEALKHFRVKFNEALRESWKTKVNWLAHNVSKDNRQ
Sequence (P27986 whole entry partner): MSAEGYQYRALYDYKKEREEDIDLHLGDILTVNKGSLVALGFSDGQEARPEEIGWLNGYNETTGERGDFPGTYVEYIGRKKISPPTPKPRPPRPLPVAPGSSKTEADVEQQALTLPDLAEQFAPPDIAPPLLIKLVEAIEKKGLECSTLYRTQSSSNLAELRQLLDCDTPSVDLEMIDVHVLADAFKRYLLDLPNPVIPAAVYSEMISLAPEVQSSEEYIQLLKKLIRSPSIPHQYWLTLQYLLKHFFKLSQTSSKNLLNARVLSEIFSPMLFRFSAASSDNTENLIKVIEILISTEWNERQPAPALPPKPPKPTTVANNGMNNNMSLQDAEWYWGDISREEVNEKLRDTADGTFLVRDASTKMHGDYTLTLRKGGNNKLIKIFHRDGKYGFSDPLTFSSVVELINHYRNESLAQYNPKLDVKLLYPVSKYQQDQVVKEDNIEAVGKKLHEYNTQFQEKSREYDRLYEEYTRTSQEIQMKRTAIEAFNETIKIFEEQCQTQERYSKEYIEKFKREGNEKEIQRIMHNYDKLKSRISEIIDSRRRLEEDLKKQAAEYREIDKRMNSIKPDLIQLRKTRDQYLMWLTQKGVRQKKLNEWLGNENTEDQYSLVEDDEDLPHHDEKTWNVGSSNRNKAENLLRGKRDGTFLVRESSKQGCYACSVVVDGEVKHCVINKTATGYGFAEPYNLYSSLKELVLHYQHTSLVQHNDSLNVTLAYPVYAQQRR
Assay: HTRF PI3K biochemical assay, delta isoform
Details: form screened (neutral or TFA salt) given, read-out: PI3Kdelta IC50
pIC50: −log10 of the molar value.
Think of 8 as a floor: if pIC50 stands on it or above, it is class 1; beneath it, class 0.

// query Check if pIC50 >= 8 (inclusive). Item: CCn1c(C(F)F)nc2c(N[C@H]3CCN(c4ccccn4)C3)ncnc21
// result class 0

// query Quick check: does CCn1c(-c2ccc(C(F)(F)F)nc2)nc2c(N[C@H]3CCN(C(=O)C4CCCO4)C3)ncnc21 (single isomer, unassigned) [Compound 2-103] have pIC50 greater than or equal to 8?
// result class 1

// query hey, is pIC50 for this one >= 8? CCn1c(-c2cnc(C)nc2)nc2c(N[C@H]3CCN(C(=O)OCc4ccccc4)C3)ncnc21
// result class 1

// query Kindly determine if pIC50 recorded for CCn1c(-c2cnc(C)nc2)nc2c(N[C@H]3CCN(c4ccc(C)cn4)C3)ncnc21 is above or exactly 8.
// result class 1

// query Is pIC50 for CCn1c(-c2cnc3[nH]ccc3c2)nc2c(N[C@H]3CCN(C(=O)C4CC4)C3)ncnc21 at or above 8?
// result class 1

// query Would you say CCn1c(-c2cnc(C)nc2)nc2c(NC3CN(C(=O)c4cocn4)CC3C)ncnc21 (single isomer, unassigned) shows pIC50 at minimum 8?
// result class 1
